Biological target: SARS-CoV-2 spike S2 protein (SARS-CoV-2, UniProt P0DTC2 686-1213)
metric name: koff (s⁻¹)

- AB-009106 (antibody, V domains shown) VH: QVQLAQSGAEVKRPGASVKVSCKASGFDLTTYGVGWVRQAPGQGLEWMGWISGSSGDTHYAQQFQDRVTMTTDTPTSTAYMELRSLRSDDTAVYYCVRENIAHYGSRTFLVRYYRGMDVWGQGTTVTVAS VL: QSALTQPASVSGSPGQSITITCTGSSSDIGGFDFVSWYQQYPGKAPKLVISEVTNRPSGVSIRFSGSKSGNTASLTISGLQAEDEADYYCSSYASSYPTTNTRVFGTGTKVTVL: 2.63e-07
- AB-009123 (antibody, V domains shown) VH: QVQLLQSGAEVRKPGASVKVSCKASGYTFSSYVMHWVRQAPGQGLEWMGWINTGNGNTRYSQKIQGRVTFTIDTAANTVNMEVSSLRSEDTAVYYCAREGLRATHYFDYWGRGTLVTVSS VL: SYELTQPPSVSVSSGQTASIPCSGDRVGDRYVCWYQQKPGQSPVLVIYQDSKRPSGIPERFSGSNSGSTATLTISGTQAIDEADYYCQAWDSSTGGVFGGGTKLTVL: 0.000802
- AB-009306 (antibody, V domains shown) VH: QVQLVQSGAEVKKPGASVKVPCKASGYTFTSYQMHWVRRAPGQGLEWMGLIDPDTGGTRYTQNFQGRVTMTRDTSTTTVYMELNSLTSGDTAVYYCARGGRVGATYPYNMDVWGKGTTVTVSS VL: SYELTQPPSVSVSPGQTARITCSGDALPKKYAYWYQQKSGQAPVLVIYEDSKRPSGIPERFSGSSSGTMATLTISGAQVEDDSDYYCFSTDSSGNHGVFGGGTRLTVL: 2.44e-07
